assay notes: NCI Yeast Anticancer Drug Screen. Data for the mlh1 rad18 strain (AID 175)
test context: S. cerevisiae mlh1 rad18 strain growth inhibition; at 50.0 µM; hits give high values
Compounds without any hit were thinned out: in the full panel of roughly 79,000, 15% have a hit. The source made the active and inactive calls. Cut-off read from the data, not from the text of the source: active = growth inhibition above about 70%; inactive = the rest.
Form field: growth inhibition (one value per entry).

Example entries and their recorded answers appear below.
>  <molecule>
COc1ccc(NC2C(=O)C3(C)CCC2C3(C)C)cc1 (stereo not given)

>  <measured metric>
growth inhibition

>  <result>
-41.1% (inactive)

$$$$
>  <molecule>
C=C1CC2OC(=O)C(=C)C2C(OC(=O)c2ccccc2)/C=C(\C)CCC1OC(=O)c1ccccc1 (stereo not given)

>  <measured metric>
growth inhibition

>  <result>
-21.4% (inactive)

$$$$
>  <molecule>
Cc1ccccc1NP1(Nc2ccccc2C)=NP(Nc2ccccc2C)(Nc2ccccc2C)=NP(Nc2ccccc2C)(Nc2ccccc2C)=NP(Nc2ccccc2C)(Nc2ccccc2C)=N1

>  <measured metric>
growth inhibition

>  <result>
-9.7% (inactive)

$$$$
>  <molecule>
c1ccc2c(c1)N=C(NNC1=Nc3ccccc3SC1)CS2

>  <measured metric>
growth inhibition

>  <result>
0.65% (inactive)

$$$$
>  <molecule>
COc1cc(C2SC(N)=Nc3c2c(C)nn3C(=O)c2ccccc2O)ccc1O (stereo not given)

>  <measured metric>
growth inhibition

>  <result>
16% (inactive)

$$$$
>  <molecule>
COc1ccc(C(=O)NNC(=O)c2ccc3ccccc3c2)cc1

>  <measured metric>
growth inhibition

>  <result>
-7.3% (inactive)

$$$$
>  <molecule>
CCCCCCCCCC1OCC(COCC)O1 (stereo not given)

>  <measured metric>
growth inhibition

>  <result>
-7.15% (inactive)

$$$$
>  <molecule>
NC(=O)c1cc(OCc2ccccc2)nc2nc(Cl)nc(N)c12

>  <measured metric>
growth inhibition

>  <result>
5.05% (inactive)

$$$$

Please list growth inhibition recorded for the molecule CCOC(=O)CC1CN(C(=O)c2ccccc2)CCC12OCCO2 (stereo not given)
-5.3% (inactive)

Please list growth inhibition recorded for the molecule `O=c1[nH]c2cc3ccccc3cc2c2ccccc12`
14.2% (inactive)

###

assay notes: NCI Yeast Anticancer Drug Screen. Data for the mlh1 rad18 strain (AID 175)
test context: S. cerevisiae mlh1 rad18 strain growth inhibition; at 50.0 µM; hits give high values
Compounds without any hit were thinned out: in the full panel of roughly 79,000, 15% have a hit.
Form field: growth inhibition (one value per entry).
// note: answer is a bare numeric in %

Example entries and their recorded answers appear below.
>  <compound>
COC1(OC)CCCCCCCCC(OC)(OC)CCCCCCCC1

>  <measured metric>
growth inhibition

>  <result>
-8.2

$$$$
>  <compound>
COc1ccc([N+](=O)[O-])c(C(OC(C)=O)OC(C)=O)c1OC(C)=O

>  <measured metric>
growth inhibition

>  <result>
-9.4

$$$$
>  <compound>
Cc1cc([N+](=O)[O-])c(C)c(Br)c1C

>  <measured metric>
growth inhibition

>  <result>
-0.85

$$$$
>  <compound>
CC1(COC(=O)C2(C)CO2)CO1 (stereo unspecified)

>  <measured metric>
growth inhibition

>  <result>
-78.2

$$$$

Please list growth inhibition recorded for the compound C[C@H]1O[C@@H](C(C)(C)C)OC(=O)[C@@H]1C(OC(=O)c1ccccc1)c1cccc2ccccc12 (stereo partly specified)
8

Please list growth inhibition recorded for the compound `CN(c1ccccc1)S(=O)(=O)c1cccc([N+](=O)[O-])c1`
-1.55
